Test: viability loss with induced miR-34 in A549 – imaging, A549 dox-inducible miR-34, nuclei and caspase counts, primary screen (AID 1347080)
Conditions: A549 miR-34 inducible, Hoechst nuclei count, 48 h; measured here: total cells without miR-34 induction
Think of 8000 as a floor: if cell count stands on it or above, it is Criterion met; beneath it, Criterion not met.

Query: Tell me whether cell count is at least 8000 here: `Cc1nn(C)cc1-c1ccnc(NCc2nc(-c3ccccc3)no2)n1`
Reply: Criterion met

Query: Now consider `COc1ccc(S(=O)(=O)N(C(C)=O)c2ccccc2C=Cc2cc[n+]([O-])cc2)cc1` and answer again.
Reply: Criterion not met

Query: Moving on to Cc1[nH]c(C=C2C(=O)Nc3ccc(S(=O)(=O)Cc4c(Cl)cccc4Cl)cc32)c(C)c1C(=O)N1CCCC1CN1CCCC1 (centres undefined)
Reply: Criterion not met

Query: Consider next the compound `O=C(C=Cc1ccc(O)c(O)c1)NCCc1ccc(O)cc1` in the same way.
Reply: Criterion met

Query: Now this one: `CC1(C)Oc2ccc(C#N)cc2[C@@H](OC2=CC(=O)CC2)[C@@H]1O`
Reply: Criterion not met

Query: Try the compound COCC1=C(C(=O)OC(C)OC(=O)OC(C)C)N2C(=O)C(NC(=O)C(=NOC)c3csc(N)n3)C2SC1 (centres undefined)
Reply: Criterion met

Query: And the next one, Cn1ncnc1C1c2n[nH]c(=O)c3cc(F)cc(c23)NC1c1ccc(F)cc1 (centres undefined) ?
Reply: Criterion not met

Query: Try this compound next: CC(=O)O[C@@]1(C(C)=O)CC[C@H]2[C@@H]3CCC4=CC(=O)CCC4=C3C(c3ccc(N(C)C)cc3)C[C@@]21C (some centres undefined)
Reply: Criterion not met

----------
Give measured inhibition for each item. Keep answers brief.
Assay: BT084 cell growth, single and combined drugs, ICGC_MB145, cisplatin and BGB IC40 combos (AID 1671461);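 further: cells exposed to drugs for 96 hours; 0% = vehicle DMSO and 100% = high DMSO full killing control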
Conditions: BT084 medulloblastoma cells, drug combinations, measured here: BGB IC40 combination 0.05 uM, at 0.05 µM, stronger effect = higher value
Field: numeric (%). Do not append units.

Query: State the recorded inhibition for this entry: CON=C1CN(c2nc3c(cc2F)c(=O)c(C(=O)O)cn3C2CC2)CC1CN (centres undefined)
Reply: -26.9

Query: Try NC(=O)c1cccc2cn(-c3ccc(C4CCCNC4)cc3)nc12 (centres undefined) next.
Reply: 4.73

Query: For `COc1nc(N)nc2c1ncn2[C@@H]1O[C@H](CO)[C@@H](O)[C@H]1O` then?
Reply: 42.2

Query: // query: `CC(C)c1ccc(-c2cc(=O)c3ccccc3o2)cc1`
Reply: -23.7

----------
Assay: liver-stage malaria parasite load reduction – cell-based, known kinase inhibitor set, luminescence, hepatoma host viability (AID 624392);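 further: infected cells incubated roughly two days before readout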
Conditions: Plasmodium liver stage in hepatoma cells, luciferase luminescence, concentration not given here; measured here: host liver cell viability
Record form. Attribute: liver cell % of control. Fill in for each entry.
Hi! Could you send only the number? It should be in %, unit omitted.

Query: Would you mind telling me what liver cell % of control value was observed for `O=C(Nc1ccc(-c2csc(Nc3cccc(C(F)(F)F)c3)n2)cc1)c1ccccc1` ?
Reply: 106

Query: Can you check `C=CC(=O)Nc1cccc(Nc2ccnc(Nc3ccc(N4CCN(C)CC4)cc3)n2)c1` next?
Reply: 92.9

Query: Please do the same for `CCN1CCN(Cc2ccc(NC(=O)c3cc(NC(=O)c4cnnc5ccccc45)cc(OC)c3)cc2C(F)(F)F)CC1` as well.
Reply: 94.5

Query: Request: `Nc1cccc(-c2c[nH]c3ncc(-c4cccnc4)cc23)c1`
Reply: 94.3

Query: Please do the same for `NS(=O)(=O)c1ccc(-c2ccc(C=C3NC(=S)NC3=O)o2)cc1` as well.
Reply: 98.7

Query: // query: `O=C(Nc1cccc(-c2csc(Nc3ccc(Cl)cc3)n2)c1)c1cccc(C(F)(F)F)c1`
Reply: 97.6

Query: Also, `Cc1ccc(C(=O)Nc2cccc(C(F)(F)F)c2)cc1NC(=O)c1cnnc2ccccc12` please.
Reply: 104

Query: And `CS(=O)(=O)CCNCc1ccoc1-c1ccc2ncnc(Nc3ccc(OCc4ccccc4)cc3)c2c1` ?
Reply: 97.4

Query: Note, next up: `COC(=O)c1ccc2c(c1)[nH]c(=O)c1c(Nc3ccc(OC(F)(F)F)cc3)ncnc12`
Reply: 107

Query: Repeat with `CCN1CCN(Cc2ccc(NC(=O)c3cc(NC(=O)c4nccnc4N)cc(OC)c3)cc2C(F)(F)F)CC1`
Reply: 98.4

Query: Would you mind doing `COc1cc(Nc2ccccn2)cc(C(=O)Nc2cccc(C(F)(F)F)c2)c1` as well?
Reply: 92.4

Query: Now this one: `C=CC(=O)Nc1cccc(N2C(=O)N(c3cc(OC)cc(OC)c3)Cc3cnc(NCCCCN(CC)CC)nc32)c1`
Reply: 102

Query: Please do the same for `COc1cc(C(=O)NC2CCN(C)CC2)ccc1Nc1ncc2c(n1)N(Cc1ccccc1)CCC(=O)N2C` as well.
Reply: 97.7

Query: Also CC(C)C(CO)Nc1nc(Nc2ccc(S(=O)(=O)O)c(N)c2)c2ncn(C(C)C)c2n1 (configuration not stated) ?
Reply: 101

Query: Again, but for `CCN1CCN(Cc2ccc(NC(=O)c3ccc(C)c(NC(=O)c4nccnc4N)c3)cc2C(F)(F)F)CC1`
Reply: 93.8

Query: For `COc1ccc(CNc2nc(NCc3ccc(OC)cc3)c3ncn(C(C)C)c3n2)cc1` then?
Reply: 107

Query: Check `O=C(Nc1cccc(-c2csc(Nc3cccc(C(F)(F)F)c3)n2)c1)c1cc([N+](=O)[O-])cc(C(F)(F)F)c1` too.
Reply: 98.5

Query: Now the compound `Nc1cnc(CNc2ccccc2Cl)cn1`
Reply: 100

Query: Check `CC(C)n1cnc2c(N(C)c3ccccc3)nc(N(CCN(C)C)Cc3ccccc3)nc21` too.
Reply: 84.5

Query: Next compound: `CCN1CCN(Cc2ccc(NC(=O)c3cc(NC(=O)c4cc(C)on4)cc(OC)c3)cc2C(F)(F)F)CC1`
Reply: 99.3

Query: Then what about the compound `CCN1CCN(Cc2ccc(NC(=O)c3ccc(C)c(NC(=O)c4csc(-c5ccncc5)n4)c3)cc2C(F)(F)F)CC1` ?
Reply: 99.6

Query: Similarly, CCN1C(=O)CC(C(C)C)N(C2CCCC2)c2nc(Nc3ccc(C(=O)NC4CCN(C)CC4)cc3OC)ncc21 (configuration not stated) ?
Reply: 102

Query: Then this compound: `COc1cc(NC(=O)c2cnc(N)o2)cc(C(=O)Nc2cccc(C(F)(F)F)c2)c1`
Reply: 87.7

Query: Also `COc1cc(NC(=O)c2cncc(-c3ccc(C#N)cc3)c2)cc(C(=O)Nc2cccc(C(F)(F)F)c2)c1` ?
Reply: 98.8

Query: Next: `COc1cc(NC(=O)c2nccn2C)cc(C(=O)Nc2cccc(C(F)(F)F)c2)c1`
Reply: 91.3

Query: Again, but for `CC(C)n1cnc2c(N(Cc3ccccc3)c3cccc(Cl)c3)nc(N(CCN(C)C)Cc3ccccc3)nc21`
Reply: 82.6

Query: Proceed to `COc1cc(NC(=O)c2ccnnc2)cc(C(=O)Nc2cccc(C(F)(F)F)c2)c1`
Reply: 93.4

Query: Another compound to check: `O=C1Cc2c([nH]c3ccc([N+](=O)[O-])cc23)-c2ccccc2N1`
Reply: 82.9

Query: How about this compound: `COc1cc(O)c2c(c1)oc(=O)c1c3cc(O)c(O)cc3oc21`
Reply: 107

Query: Another: `CN(C)C1=NC(=O)C(=Cc2ccc(-c3ccc(S(N)(=O)=O)cc3)o2)S1`
Reply: 99.8

Query: Field entry: `CS(=O)(=O)CCNCc1coc(-c2ccc3ncnc(Nc4ccc(OCc5ccccc5)cc4)c3c2)c1`
Reply: 87.7

Query: Also `NC1=NC(=O)C(=Cc2ccc(-c3ccc(S(N)(=O)=O)cc3)o2)S1` ?
Reply: 104

Query: What do you have for `CCN1C(=O)CCN(C2CCCC2)c2nc(Nc3ccc(C(=O)NC4CCN(C)CC4)cc3OC)ncc21` ?
Reply: 91.7

Query: Further, for `O=C(Nc1cccc(-c2csc(Nc3ccc(Cl)cc3)n2)c1)c1ccccc1` ?
Reply: 90.9

Query: Same thing, different compound: `O=C(Nc1cccc(-c2csc(Nc3ccc(Cl)cc3)n2)c1)c1cc([N+](=O)[O-])cc(C(F)(F)F)c1`
Reply: 95.1

Query: Moving on to `COc1cc(NC(=O)c2cc(C)on2)cc(C(=O)Nc2cccc(C(F)(F)F)c2)c1`
Reply: 96.5

Query: Now consider CCN1C(=O)CC(c2ccccc2)N(C2CCCC2)c2nc(Nc3ccc(C(=O)NC4CCN(C)CC4)cc3OC)ncc21 (configuration not stated) and answer again.
Reply: 94.4
